# targetOrSystem: Heat shock factor protein 1 (Mus musculus)
# Sequence (P38532 whole entry): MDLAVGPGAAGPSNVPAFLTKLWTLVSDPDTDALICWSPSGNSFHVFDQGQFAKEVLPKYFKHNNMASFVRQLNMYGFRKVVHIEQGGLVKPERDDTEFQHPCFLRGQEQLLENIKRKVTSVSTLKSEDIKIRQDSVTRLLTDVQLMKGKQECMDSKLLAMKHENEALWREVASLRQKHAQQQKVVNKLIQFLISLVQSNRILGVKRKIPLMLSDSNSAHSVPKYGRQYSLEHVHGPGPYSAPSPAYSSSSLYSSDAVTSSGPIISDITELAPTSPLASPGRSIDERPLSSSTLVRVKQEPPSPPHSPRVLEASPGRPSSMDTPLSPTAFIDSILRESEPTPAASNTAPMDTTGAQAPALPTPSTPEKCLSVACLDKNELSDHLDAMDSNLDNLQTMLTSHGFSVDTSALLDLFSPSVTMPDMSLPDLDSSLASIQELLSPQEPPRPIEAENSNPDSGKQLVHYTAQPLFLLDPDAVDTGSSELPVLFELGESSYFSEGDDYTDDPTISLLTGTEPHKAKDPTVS
# experimentDescription: inhibition of MG132-induced HSE-luciferase signal, confirmation, cell-based, NIH3T3, luminescence, dose retest (AID 2382);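 note: NIH3T3 fibroblasts with HSF1-driven luciferase reporter stressed by proteasome inhibitor MG132; luminescence from HSF1-driven luciferase expression after 8 hours of MG132 stress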
# Type: functional

compound	targetOrSystem	EC50
CNC(=O)c1[nH]cnc1C(=O)Nc1ccccc1C	Heat shock factor protein 1 (Mus musculus)	> 195 µM (not active)
CCOC(=O)c1cc2occc2n1CC(=O)N1CCCc2ccccc21	Heat shock factor protein 1 (Mus musculus)	> 195 µM (not active)
O=C(O)C1CCC(=O)N(C2CCCCC2)C1c1ccccc1Cl (stereo not drawn)	Heat shock factor protein 1 (Mus musculus)	> 195 µM (not active)
